// Kd lookup, one value per entry
# ASSAYED_SYSTEM: T1, extracellular domain of human BCMA (human, UniProt Q02223 1-54)
# T1 construct: amine-linked to Octet AR2G tips; also called hsBCMA; BCMA (human)
# T1 sequence: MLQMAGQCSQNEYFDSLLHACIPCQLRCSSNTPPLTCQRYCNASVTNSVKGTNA
# ASSAY: Octet BLI; Fab 200 nM
Use nM as the unit, but write only the number.

Please review the following examples before continuing.
AB200-R1a-Fab_Vk27 (Fab, V domains shown) VH: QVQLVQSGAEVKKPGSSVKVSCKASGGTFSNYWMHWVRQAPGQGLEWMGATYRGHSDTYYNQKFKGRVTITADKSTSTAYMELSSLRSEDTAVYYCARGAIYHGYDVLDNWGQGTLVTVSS VL: DIQMTQSPSSLSASVGDRVTITCSASQDITNYLNWYQQKPGKAPKLLIYFTSNLHSGVPSRFSGSGSGTDFTLTISSLQPEDFATYYCQQYYKLPWTFGQGTKLEIKR : 6.39
AB200-R1a-Fab_Vk33 (Fab, V domains shown) VH: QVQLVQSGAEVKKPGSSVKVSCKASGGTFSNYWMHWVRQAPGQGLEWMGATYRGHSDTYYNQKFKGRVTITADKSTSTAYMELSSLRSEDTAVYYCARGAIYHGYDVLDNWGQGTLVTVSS VL: DIQMTQSPSSLSASVGDRVTITCSASQDISSYLNWYQQKPGKAPKLLIYFTSNLHSGVPSRFSGSGSGTDFTLTISSLQPEDFATYYCQQSRKLPWTFGQGTKLEIKR : 19.5
AB200-R1a-Fab_Vk22 (Fab, V domains shown) VH: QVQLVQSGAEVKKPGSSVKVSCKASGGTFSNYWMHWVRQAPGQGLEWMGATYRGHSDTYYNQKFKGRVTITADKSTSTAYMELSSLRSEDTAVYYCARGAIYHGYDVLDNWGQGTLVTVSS VL: DIQMTQSPSSLSASVGDRVTITCRASQDISNYLNWYQQKPGKAPKLLIYYTSNLHSGVPSRFSGSGSGTDFTLTISSLQPEDFATYYCQQYRSIPWTFGQGTKLEIKR : 2.48
AB200-R1a-Fab_Vk36 (Fab, V domains shown) VH: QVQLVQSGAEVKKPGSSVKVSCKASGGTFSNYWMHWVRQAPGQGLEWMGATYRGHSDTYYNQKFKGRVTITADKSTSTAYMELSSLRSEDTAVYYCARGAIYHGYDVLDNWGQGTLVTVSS VL: DIQMTQSPSSLSASVGDRVTITCSASQDLSNYLNWYQQKPGKAPKLLIYYTSNLQSGVPSRFSGSGSGTDFTLTISSLQPEDFATYYCQQYRRLPWTFGQGTKLEIKR : 1.43

Moving on to another binder below.
Ask: # query: Kd of entry AB200-R1a-Fab_Vk24 (Fab, V domains shown) VH: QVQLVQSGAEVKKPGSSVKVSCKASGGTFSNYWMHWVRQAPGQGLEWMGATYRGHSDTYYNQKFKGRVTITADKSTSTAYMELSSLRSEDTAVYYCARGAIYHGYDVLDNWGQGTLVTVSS VL: DIQMTQSPSSLSASVGDRVTITCSASNSISNYLNWYQQKPGKAPKLLIYYASNLHSGVPSRFSGSGSGTDFTLTISSLQPEDFATYYCQQYRKLPWTFGQGTKLEIKR
Reply: 5.11
